B1: S. cerevisiae Abp1 (full length; SH3 domain 535-592 mutated) / Hua2 (parent)
chain 1: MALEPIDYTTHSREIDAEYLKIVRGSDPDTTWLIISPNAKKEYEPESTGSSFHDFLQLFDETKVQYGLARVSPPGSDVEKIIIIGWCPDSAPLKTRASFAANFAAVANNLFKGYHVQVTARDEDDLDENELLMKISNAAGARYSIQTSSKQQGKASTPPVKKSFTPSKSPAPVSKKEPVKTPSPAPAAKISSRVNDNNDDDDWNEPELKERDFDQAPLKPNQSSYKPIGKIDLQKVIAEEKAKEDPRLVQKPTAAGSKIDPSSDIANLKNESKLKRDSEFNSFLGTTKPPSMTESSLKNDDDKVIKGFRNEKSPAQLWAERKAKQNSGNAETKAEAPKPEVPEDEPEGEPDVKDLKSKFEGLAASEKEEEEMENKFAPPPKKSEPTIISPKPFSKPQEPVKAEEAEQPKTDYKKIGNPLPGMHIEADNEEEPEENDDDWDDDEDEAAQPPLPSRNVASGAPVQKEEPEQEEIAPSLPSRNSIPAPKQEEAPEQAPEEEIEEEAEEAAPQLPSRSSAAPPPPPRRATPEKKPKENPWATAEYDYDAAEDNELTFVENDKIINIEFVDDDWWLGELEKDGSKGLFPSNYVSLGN
chain 2: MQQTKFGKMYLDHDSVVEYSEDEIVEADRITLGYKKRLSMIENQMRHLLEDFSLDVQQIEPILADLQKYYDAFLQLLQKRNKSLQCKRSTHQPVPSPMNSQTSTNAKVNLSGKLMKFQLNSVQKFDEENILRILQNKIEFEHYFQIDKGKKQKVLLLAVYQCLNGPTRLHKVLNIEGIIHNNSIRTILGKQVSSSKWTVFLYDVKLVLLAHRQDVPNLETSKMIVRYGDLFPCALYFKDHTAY

Variants of: B1
Test: DHFR protein-fragment complementation in yeast (Abp1-DHFR F[1,2] x partner-DHFR F[3]), deep mutational scanning, second methotrexate selection vs reference
Conditions: with Hua2; S. cerevisiae, DHFR-PCA selection in liquid with methotrexate at 30 C, two 72 h selections (the score uses the second); reference = the pre-selection culture; not an affinity; value at the no-binding floor (a bound); scale: DMS score: mean over two replicates of log2(f_test/f_ref + 0.5)/ln 2, minus the synonymous-codon median
Reported Property: screen value

I am curious: what screen value value has been reported for chain 1 L590G ?
-3.05

New cases:
I am curious: what screen value value has been reported for chain 1 N561L ?
-3.02

I am curious: what screen value value has been reported for chain 1 D566P ?
< -3.06

I am curious: what screen value value has been reported for chain 1 L574E ?
< -3.06

I am curious: what screen value value has been reported for chain 1 A537Q ?
< -3.06

The values you see were collected from paper PMC7954794.
